- System: Human immunodeficiency virus 1
- Test: Antiviral activity against HIV1 harboring E138K mutant infected in human MT4 cells assessed as reduction in virus-induced cytopathic effect by MTT assay
- Assay type: functional, organism-based
- Condition: Human immunodeficiency virus 1, MT4
Reported Metric: EC50

// known answers, use as guide
| Sample Smiles | Measurement |
| --- | --- |
| Cc1cc(/C=C/C#N)cc(C)c1Oc1ccnc(Nc2ccc(CN3CCN(S(=O)(=O)C4CC4)CC3)cc2)n1 | 0.031 µM |
| Cc1cn([C@H]2C[C@H](N=[N+]=[N-])[C@@H](CO)O2)c(=O)[nH]c1=O | 0.036 µM |
| C=CC(=O)N1CCN(Cc2ccc(Nc3nccc(Oc4c(C)cc(/C=C/C#N)cc4C)n3)cc2)CC1 | 0.041 µM |
| Cc1ccnc2c1NC(=O)c1cccnc1N2C1CC1 | 0.17 µM |
| Cc1cc(/C=C/C#N)cc(C)c1Oc1ccnc(Nc2ccc(CN3CCN(S(=O)(=O)C(C)C)CC3)cc2)n1 | 0.036 µM |

// returns reported EC50 for input `Cc1cc(C#N)cc(C)c1Oc1nc(Nc2ccc(C#N)cc2)nc(N)c1Br` 0.0098 µM

# query: EC50 of entry `Cc1cc(/C=C/C#N)cc(C)c1Oc1ccnc(Nc2ccc(CN3CCN(S(=O)(=O)N(C)C)CC3)cc2)n1` 0.034 µM

Where do the numbers come from? From ChEMBL document CHEMBL4732113.
